// values below are reported fold change (FC)
Organism: Mus musculus
EXPERIMENT: Binding affinity to prostanoid receptor in [8-14C]-adenine-treated CD-1 mouse ovary assessed as increase in c-AMP production at 10 ug/mL after 30 mins by paper chromatographic analysis in presence of phosphodiesterase inhibitor theophylline
Assay type: tissue-based
TEST PARAMETERS: Female gonad
The response must contain the number and no unit.

Worked examples follow.
CCCCC[C@H](O)CCCC(CCCCCCC(=O)O)C(C)=O (stereo partly specified) :: 19
CCCCCC(O)CCCC(CCCCCCC(=O)O)C(C)O (stereo unspecified) :: 15
CCCCC[C@@H](O)C#CCC(CCCCCCC(=O)O)C(C)=O (stereo partly specified) :: 2

QUERY: Quick one: fold change (FC) for CC(=O)C(CCCCCCCCCO)CCCCCCC(=O)O (stereo unspecified) ?
RESULT: 1

QUERY: Bench note: what fold change (FC) did CCCCCC(C)(O)CCCC(CCCCCCC(=O)O)C(C)=O (stereo unspecified) show?
RESULT: 4

QUERY: Need fold change (FC) of CC(=O)C(CCCCCCC(=O)O)CCCC(O)CCc1ccccc1 (stereo unspecified) , thanks.
RESULT: 1

QUERY: // returns reported fold change (FC) for input CCCCCC(O)CCCC(CO)CCCCCCC(=O)O (stereo unspecified)
RESULT: 8

QUERY: Entry under review: CCCCCC(=O)CCCC(CCCCCCC(=O)O)C(C)=O (stereo unspecified) . Reported fold change (FC)?
RESULT: 2

QUERY: // lookup fold change (FC) for `CCCCC[C@H](O)/C=C/[C@H]1[C@H](O)CC(=O)[C@@H]1C/C=C\CCCC(=O)O`
RESULT: 80

QUERY: Consider the compound CCCCCC(O)/C=C/CC(CCCCCCC(=O)O)C(C)=O (stereo unspecified) and give its measured fold change (FC).
RESULT: 2

QUERY: Which fold change (FC) is listed for CCCCCC(O)CCCC(CCCCCCC(=O)O)C(C)=O (mixture of isomers) ?
RESULT: 11

---

Organism: Mus musculus
EXPERIMENT: Binding affinity to prostanoid receptor in [8-14C]-adenine-treated CD-1 mouse ovary assessed as increase in c-AMP production at 100 ug/mL after 30 mins by paper chromatographic analysis in presence of phosphodiesterase inhibitor theophylline
Format: tissue-based
TEST PARAMETERS: Female gonad
QUANTITY: fold change (FC)
# output: bare number, no unit

Below: 3 compounds and their reported fold change (FC).
CCCCCC(C)(O)CCCC(CCCCCCC(=O)O)C(C)=O (stereo not drawn) :: 11
CCCCCC(O)CCCC(CCCCCCC(=O)O)C(C)=O (mixture of isomers) :: 23
CCCCCC(=O)CCCC(CCCCCCC(=O)O)C(C)=O (stereo not drawn) :: 9

QUERY: fold change (FC) lookup needed for `CCCCCC[C@@H](O)C/C=C/CCCCCCCC(=O)O` , thanks.
RESULT: 2

QUERY: I'd like to know its fold change (FC). The compound in question is CC(=O)C(CCCCCCC(=O)O)CCCC(O)CCc1ccccc1 (stereo not drawn)
RESULT: 2

QUERY: Recorded fold change (FC) for CCCCC(O)CCCCC(CCCCCCC(=O)O)C(C)=O (stereo not drawn) , please?
RESULT: 20

QUERY: Consider the compound shown here: CCCCCC(O)CCCC(CCCCCCC(=O)O)C(=O)CC (stereo not drawn) What is its recorded fold change (FC)?
RESULT: 26
